I'd be grateful if you could share measured pIC50 for these entries.
# Test system: KB cells
# experimentDescription: Cytotoxicity: 50% reduction in cell number of KB cells after three day incubation
# Assay type: cell-based
# conditionContext: Homo sapiens, 72 h; Table 3; KB cells; three day incubation; read-out: Cytotoxicity ID50 KB
pIC50: −log10 of the molar value.

Use the examples below as a reference point.
{"compound": "CCOC(=O)c1ccc(N[C@@H]2c3cc(OC)c(OC)cc3[C@@H](c3cc(OC)c(O)c(OC)c3)[C@H]3C(=O)OC[C@@H]32)cc1 [Example 33]", "result": "> 6.40"}
{"compound": "COc1cc([C@@H]2c3cc(O)c(O)cc3[C@@H](Nc3ccc(F)cc3)[C@H]3COC(=O)[C@H]23)cc(OC)c1O [Example 30]", "result": "< 6.00"}

Consider now this further compound.
COc1cc2c(cc1OC)[C@@H](Nc1ccc(C#N)cc1)[C@H]1COC(=O)[C@@H]1[C@@H]2c1cc(OC)c(O)c(OC)c1 [Example 32] yielded pIC50 of > 6.40
